Origin of values: ChEMBL document CHEMBL5357047

test system: Escherichia coli; experiment: Antibacterial activity against Escherichia coli MTCC 119 assessed as inhibition of bacterial growth at 50 uM measured after 48 hrs by agar well diffusion method; format: functional; conditions: read-out: IZ
Recorded measurements of zone of inhibition at 50 µM, one per entry
Provide the reading as a plain figure in mm.

The recorded zone of inhibition at 50 µM with Escherichia coli for Cc1ccc(C(C)C)c(OCc2cn(CCCCN3C(=O)C(=O)c4cc(Br)ccc43)nn2)c1 was 11.1

The recorded zone of inhibition at 50 µM with Escherichia coli for Cc1ccc(C(C)C)c(OCc2cn(CCCCN3C(=O)C(=O)c4ccccc43)nn2)c1 was 16.5

The recorded zone of inhibition at 50 µM with Escherichia coli for Cc1ccc(C(C)C)c(OCc2cn(CCCN3C(=O)C(=O)c4cc(C)ccc43)nn2)c1 was 16.5

The recorded zone of inhibition at 50 µM with Escherichia coli for Cc1ccc(C(C)C)c(OCc2cn(CCN3C(=O)C(=O)c4cc(F)ccc43)nn2)c1 was 13.3

The recorded zone of inhibition at 50 µM with Escherichia coli for Cc1ccc(C(C)C)c(OCc2cn(CCCCN3C(=O)C(=O)c4cc(Cl)ccc43)nn2)c1 was 10.3

Continuing:
The recorded zone of inhibition at 50 µM with Escherichia coli for Cc1ccc(C(C)C)c(OCc2cn(CCCN3C(=O)C(=O)c4cc(Br)ccc43)nn2)c1 was 14.1

The recorded zone of inhibition at 50 µM with Escherichia coli for Cc1ccc(C(C)C)c(OCc2cn(CCCCN3C(=O)C(=O)c4cc(I)ccc43)nn2)c1 was 10.2

The recorded zone of inhibition at 50 µM with Escherichia coli for COc1ccc2c(c1)C(=O)C(=O)N2CCCn1cc(COc2cc(C)ccc2C(C)C)nn1 was 16.5

The recorded zone of inhibition at 50 µM with Escherichia coli for Cc1ccc(C(C)C)c(OCc2cn(CCCN3C(=O)C(=O)c4cc(Cl)ccc43)nn2)c1 was 14.2
